- assayed.target: KRAS G12C-GDP (Homo sapiens (Human), UniProt P01116, G12C)
- Sequence (P01116-2 other isoform, or with tags, fused parts or gaps G12C): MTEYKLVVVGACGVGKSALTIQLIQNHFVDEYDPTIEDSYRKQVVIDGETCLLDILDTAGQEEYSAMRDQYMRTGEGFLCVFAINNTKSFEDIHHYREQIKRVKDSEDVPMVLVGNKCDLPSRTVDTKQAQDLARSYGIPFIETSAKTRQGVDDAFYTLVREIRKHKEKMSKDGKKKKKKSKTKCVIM
- assay.name: KRAS G12C-GDP exchange test (SOS/cRAF/GTP, HTRF)
- stated.conditions: 1 h premix with compound, 2 h reaction with SOS, cRAF, GTP
readout.type: IC50 (nM)

Use the examples below as a reference point.
C=CC(=O)N1CCN(c2nc(OCC34CCCN3CCC4)nc3c(F)c(-c4cccc5c4CCCC5)ncc23)C[C@@H]1CC#N
10.6
C=C(F)C(=O)N1CCN(c2nc(OC[C@@]34CCCN3C[C@H](F)C4)nc3c(F)c(-c4cccc5c4CC4CC54)ccc23)C[C@@H]1CC#N (single isomer, unassigned)
1.02
C=C(F)C(=O)N1CCN(c2nc(OC[C@@H]3CCCN3C)nc3c(F)c(-c4cccc5cccc(Cl)c45)ccc23)C[C@@H]1CC#N
0.89
C=CC(=O)N1CCN(c2nc(OC[C@@H]3CCCN3C)nc3c(F)c(-c4ccc(F)c5c4CCCC5)ncc23)C[C@@H]1CC#N
1.65
C=CC(=O)N1CCN(c2nc(OC[C@@H]3CCCN3C)nc3cc(-c4cccc5cccc(Cl)c45)ccc23)C[C@@H]1CC#N
1.34

P = C=CC(=O)N1CCN(c2nc(OC[C@@H]3CCCN3C)nc3c(F)c(-c4cccc5c4CCCC5)ncc23)C[C@@H]1CC#N
Q = C=CC(=O)N1CCN(c2nc(OC[C@@H]3CCCN3C)nc3nc(-c4cccc5c4CCCC5)ccc23)C[C@@H]1CC#N
Qu. // compare measured IC50 between P and Q ; output the lower one Mark your answer with the label of the selected entry.
Ans. Q

1 = C=C(F)C(=O)N1CCN(c2nc(OC[C@@H]3CCCN3C)nc3c(F)c(-c4cccc5c4CC4CC54)ccc23)C[C@@H]1CC#N (single isomer, unassigned)
2 = C=CC(=O)N1CCN(c2nc(OC[C@@H]3CCCN3C)nc3nc(-c4cccc5cccc(Cl)c45)ccc23)C[C@@H]1CC#N
Qu. // compare measured IC50 between 1 and 2 ; output the lower one Mark your answer with the label of the selected entry.
Ans. 1

a = C=CC(=O)N1CCN(c2nc(OCC3(CN4CCCC4)CC3)nc3c(F)c(-c4cccc5cccc(Cl)c45)ncc23)C[C@@H]1CC#N
b = C=C(F)C(=O)N1CC[C@@H]2[C@H]1CN2c1nc(OC[C@@H]2CCCN2C)nc2c(F)c(-c3cccc4c3CCCC4)ncc12
c = C=C(F)C(=O)N1CCN(c2nc(OCC34CCCN3CCC4)nc3c(F)c(-c4cccc5c4CCCC5)ncc23)C[C@@H]1CC#N
Qu. Order the records so the highest IC50 appears first and the lowest last. Enter labels, ranked according to the request.
Ans. c, b, a

###

- System: H358 cells
- assay.name: Cell activity experiment: activity test of H358 cells (MTT, 5 days)
- Assay type: cell-based
- stated.conditions: Homo sapiens, NCI-H358, 120 h, 5 days incubation, absorbance 492 nm
readout.type: IC50 (nM)

Use the examples below as a reference point.
C=CC(=O)N1CCN(c2nc(OCC34CCCN3CCC4)nc3c(F)c(-c4cccc5c4CCCC5)ccc23)C[C@@H]1CC#N [Example 363]
5
C=CC(=O)N1CCN(c2nc(OCC34CCCN3C[C@H](F)C4)nc3c(F)c(-c4cncc5cccc(Cl)c45)ccc23)C[C@@H]1CC#N (stereo partly shown) [Example 164]
1.5
C=CC(=O)N1CCN(c2nc(OC[C@@H]3CCCN3C)nc3cc(-c4cccc5ccc(F)c(Cl)c45)cnc23)C[C@@H]1CC#N [Example 840]
809
C=CC(=O)N1CCC2[C@H]1CN2c1nc(OCC23CCCN2CCC3)nc2c(F)c(-c3cccc4c3CCCC4)ccc12 (stereo partly shown) [Example 372]
5
C=C(F)C(=O)N1CCN(c2nc(OCC34CCCN3CCC4)nc3c(F)c(-c4cncc5c4CCCC5)ncc23)C[C@@H]1CC#N [Example 38]
36

P = C=C(F)C(=O)N1CCN(c2nc(OC[C@@H]3CCCN3C)nc3c(F)c(-c4cncc5cccc(Cl)c45)ccc23)C[C@@H]1CC#N [Example 159]
Q = C=CC(=O)N1CCN(c2nc(OCC34CCCN3CCC4)nc3c(F)c(-c4cccc5c4C4CC4C5)ncc23)C[C@@H]1CC#N (stereo partly shown) [Example 61]
Qu. Hi team, can someone confirm which has the larger IC50: P or Q ? Thanks. Mark your answer with the label of the selected entry.
Ans. P
(P: 18 nM, Q: 0.71 nM)

A = C=CC(=O)N1CCN(c2nc(OCC34CCCN3C[C@H](F)C4)nc3cc(-c4cccc5ccc(F)c(Cl)c45)ccc23)C[C@@H]1CC#N (stereo partly shown) [Example 99]
B = C=CC(=O)N1CCN(c2nc(OC[C@@H]3CCCN3C)nc3cc(-c4cncc5c4CCCC5)ccc23)C[C@@H]1CC#N [Example 142]
C = C=C(F)C(=O)N1CC[C@@H]2[C@H]1CN2c1nc(OCC23CCCN2CCC3)nc2c(F)c(-c3cncc4c3CCCC4)ncc12 [Example 46]
D = C=C(F)C(=O)N1CCN(c2nc(OCC34CCCN3C[C@H](F)C4)nc3cc(-c4cncc5cccc(Cl)c45)ccc23)C[C@@H]1CC#N (stereo partly shown) [Example 133]
Qu. Order the records so the highest IC50 appears first and the lowest last. Enter labels, ranked according to the request.
Ans. C, B, D, A

A = C=CC(=O)N1CCN(c2nc(OC[C@@H]3C[C@@H](F)CN3C)nc3cc(-c4cncc5c4CCCC5)ccc23)C[C@@H]1CC#N [Example 144]
B = C=C(F)C(=O)N1CCN(c2nc(OCC34CCCN3CCC4)nc3cc(-c4cncc5cccc(Cl)c45)ccc23)C[C@@H]1CC#N [Example 131]
Qu. // compare measured IC50 between A and B ; output the lower one Mark your answer with the label of the selected entry.
Ans. B
